- protocolDescription: recombinant UMI read abundance after kanamycin selection (control-corrected) (log10(CPM+1)); higher = more efficient recombination; extreme values may be limits of the assay; sequences stand for … in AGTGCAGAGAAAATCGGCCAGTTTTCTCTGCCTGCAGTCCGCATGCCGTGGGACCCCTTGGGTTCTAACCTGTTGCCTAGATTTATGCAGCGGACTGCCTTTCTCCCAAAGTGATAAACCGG…AGGTTGGTTTCACT; site = the 11-nt donor;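 note: IS621 bridge recombinase in Escherichia coli cells against a fixed T5 target plasmid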
We use 0.7 as the dividing line for recombinant UMI read abundance (log10): on or above the line is Criterion met, below is Criterion not met.

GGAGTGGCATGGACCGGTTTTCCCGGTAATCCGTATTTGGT (site GGAGTGTCTAC)    Criterion met
GTAAGGCCATGGACCGGTTTTCCCGGTAATCCGTATTTGAC (site CTAAGGCCTGT)    Criterion not met

Exercise: I'd appreciate it if you could say whether TGTGTAACATGGACCGGTTTTCCCGGTAATCCGTATTTGGG (site TGTGTAACTCC) has recombinant UMI read abundance (log10) at least equal to 0.7.
Solution: Criterion not met

Exercise: I'd appreciate it if you could say whether GATAAATCATGGACCGGTTTTCCCGGTAATCCGTATTTGAC (site GATAAATCTGT) has recombinant UMI read abundance (log10) at least equal to 0.7.
Solution: Criterion met

Exercise: I'd appreciate it if you could say whether GCTTGCCCATGGACCGGTTTTCCCGGTAATCCGTATTTGTT (site GCTTGCCCTAT) has recombinant UMI read abundance (log10) at least equal to 0.7.
Solution: Criterion not met

Exercise: I'd appreciate it if you could say whether ATCTATACATGGACCGGTTTTCCCGGTAATCCGTATTTGAC (site TTCTATACTGT) has recombinant UMI read abundance (log10) at least equal to 0.7.
Solution: Criterion met

Exercise: I'd appreciate it if you could say whether GGTGAGCCATGGACCGGTTTTCCCGGTAATCCGTATTTGGG (site GGTGAGCCTCC) has recombinant UMI read abundance (log10) at least equal to 0.7.
Solution: Criterion not met

Exercise: I'd appreciate it if you could say whether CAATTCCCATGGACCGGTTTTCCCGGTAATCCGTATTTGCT (site CAATTGCCTAG) has recombinant UMI read abundance (log10) at least equal to 0.7.
Solution: Criterion not met

Exercise: I'd appreciate it if you could say whether CTCTTCTCATGGACCGGTTTTCCCGGTAATCCGTATTTGGG (site CGCTTCTCTCC) has recombinant UMI read abundance (log10) at least equal to 0.7.
Solution: Criterion not met

Exercise: I'd appreciate it if you could say whether GCCAAGCCATGGACCGGTTTTCCCGGTAATCCGTATTTGTA (site GCCATGCCTTA) has recombinant UMI read abundance (log10) at least equal to 0.7.
Solution: Criterion not met

Exercise: I'd appreciate it if you could say whether AACGTCTCATGGACCGGTTTTCCCGGTAATCCGTATTTGTC (site AACGTCTCTGA) has recombinant UMI read abundance (log10) at least equal to 0.7.
Solution: Criterion met

Exercise: I'd appreciate it if you could say whether ATTGAGACATGGACCGGTTTTCCCGGTAATCCGTATTTGGA (site ATTGAGACTAC) has recombinant UMI read abundance (log10) at least equal to 0.7.
Solution: Criterion not met

Exercise: I'd appreciate it if you could say whether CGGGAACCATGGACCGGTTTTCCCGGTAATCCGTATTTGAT (site GGGGAACCTAT) has recombinant UMI read abundance (log10) at least equal to 0.7.
Solution: Criterion not met

Exercise: I'd appreciate it if you could say whether GTATGCACATGGACCGGTTTTCCCGGTAATCCGTATTTGTT (site GTATGCACTCA) has recombinant UMI read abundance (log10) at least equal to 0.7.
Solution: Criterion not met
